- ASSAY PROCEDURE: chemical genetic growth profiling, strain panel (AID 1159580);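 also: tested at 20 µM; growth read once vehicle control cultures reached saturation at 30 °C; 1 = growth at the plate median or of vehicle wells; lower values mean less growth of the strain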
- SETUP CONDITIONS: S. cerevisiae deletion strains, growth OD, locus YJR043C, strain POL32, active compounds read low
Out of some 5,500 compounds screened, about 2,000 (36%) were called active. Another 18% or so got no clear call; they are omitted. The list shows a part of the results.
ENDPOINT: normalized growth

Solved cases (5 shown):
COMPOUND | normalized growth
CO[C@H]1CC(O[C@@H]2/C(C)=C/C[C@@H]3C[C@@H](C[C@]4(CC[C@H](C)[C@@H](C5CCCCC5)O4)O3)OC(=O)[C@@H]3C=C(C)/C(=N\O)[C@H]4OC/C(=C\C=C\[C@@H]2C)[C@]43O)O[C@@H](C)C1O (stereo partly specified) | 0.977 (inactive)
O=S(=O)(Oc1ccc(OCc2ccccc2)cc1)c1cc(Cl)cc(Cl)c1 | 1.01 (inactive)
OCc1ccccc1-c1ccccc1 | 0.971 (inactive)
NCCCCCCNS(=O)(=O)c1cccc2c(Cl)cccc12 | 0.971 (inactive)
CC(C)CCCC(C)C1CCC2C3CC[C@H]4C[C@@H](O)CC[C@]4(C)C3CC[C@]12C (stereo partly specified) | 0.988 (inactive)

input: So what does the record say about normalized growth for O=P1(N(CCCl)CCCl)NCCCO1 (stereo unspecified) ?
output: 1.01 (inactive)

----------
- ASSAY PROCEDURE: chemical genetic growth profiling, strain panel (AID 1159580)
- SETUP CONDITIONS: S. cerevisiae deletion strains, growth OD, locus YKL068W, active compounds read low
Screen size: about 5,500 compounds; about 2,000 (36%) were called active. Another 18% or so got no clear call; they are omitted. This is one part of the list.
ENDPOINT: normalized growth

Solved cases (3 shown):
COMPOUND | ENDPOINT VALUE
NC1=NCCN1CC(=O)O | 0.986 (inactive)
CCOC(=O)NNc1nncc2ccccc12 | 0.984 (inactive)
CC(=O)O[C@H]1CCC2(C)C3=C(CCC2C1(C)C)[C@@]1(C)CC[C@@H](C(C)CCC=C(C)C)[C@]1(C)CC3 (stereo partly specified) | 1.04 (inactive)

input: So what does the record say about normalized growth for COc1ccccc1OCC(O)CO (stereo unspecified) ?
output: 1.01 (inactive)

input: So what does the record say about normalized growth for CC(=O)OCC(=O)[C@@]1(O)[C@H](C)CC2C3CCC4=CC(=O)C=C[C@]4(C)[C@@]3(F)[C@@H](O)C[C@@]21C (stereo partly specified) ?
output: 0.998 (inactive)

input: So what does the record say about normalized growth for CC(C)(C)NCC(O)c1ccc(O)c(CO)c1 (stereo unspecified) ?
output: 1.01 (inactive)

----------
- ASSAY PROCEDURE: chemical genetic growth profiling, strain panel (AID 1159580)
- SETUP CONDITIONS: S. cerevisiae deletion strains, growth OD, locus YGR078C, strain PAC10, active compounds read low
About 2,000 (36%) of roughly 5,500 compounds were called active. Another 18% or so got no clear call; they are omitted. The list shows a part of the results.
ENDPOINT: normalized growth
Response field accepts a number only; no unit should be typed.

input: So what does the record say about normalized growth for O=c1[nH]cnc2ccsc12 ?
output: 0.998

input: So what does the record say about normalized growth for O=C1NC(O)=NC1(c1ccccc1)c1ccccc1 ?
output: 1.01

----------
Recorded normalized growth for the following compounds
- ASSAY PROCEDURE: chemical genetic growth profiling, strain panel (AID 1159580)
- SETUP CONDITIONS: S. cerevisiae deletion strains, growth OD, locus YBR171W, strain sec66, active compounds read low
Screen size: about 5,500 compounds; about 2,000 (36%) were called active. Another 18% or so got no clear call; they are omitted. This is one part of the list.
Response field accepts a number only; no unit should be typed.

input: So what does the record say about normalized growth for CS(=O)(=O)Nc1ccc([N+](=O)[O-])cc1Oc1ccccc1 ?
output: 0.988

input: So what does the record say about normalized growth for CN(C)C(=O)Oc1cccc([N+](C)(C)C)c1 ?
output: 0.992

input: So what does the record say about normalized growth for CCOC(=O)[C@H](CCc1ccccc1)N[C@@H](C)C(=O)N1CCC[C@H]1C(=O)O ?
output: 0.979

input: So what does the record say about normalized growth for CCC(C)[C@H]1O[C@]2(C=C[C@@H]1C)C[C@@H]1C[C@@H](C/C=C(\C)[C@@H](OC3C[C@H](OC)C(O[C@H]4C[C@H](OC)[C@@H](O)[C@H](C)O4)[C@H](C)O3)[C@@H](C)/C=C/C=C3\CO[C@@H]4[C@H](O)C(C)=C[C@@H](C(=O)O1)[C@]34O)O2 (stereo partly drawn) ?
output: 1

input: So what does the record say about normalized growth for Cc1nc(N)cc(C[n+]2csc(CCO)c2C)n1 ?
output: 0.971

input: So what does the record say about normalized growth for CN(C)[C@@H]1C(=O)C(C(=O)NCN2CCCC2)=C(O)[C@@]2(O)C(=O)C3=C(O)c4c(O)cccc4[C@@](C)(O)[C@H]3C[C@@H]12 ?
output: 1.02

input: So what does the record say about normalized growth for CC(Cc1cccc(C(F)(F)F)c1)NCCOC(=O)c1ccccc1 (stereo not drawn) ?
output: 0.975

input: So what does the record say about normalized growth for C=C1c2cccc(O)c2C(O)=C2C(=O)[C@]3(O)C(O)=C(C(N)=O)C(=O)[C@@H](N(C)C)[C@@H]3[C@@H](O)[C@H]12 ?
output: 1.02

----------
- ASSAY PROCEDURE: chemical genetic growth profiling, strain panel (AID 1159580);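 also: tested at 20 µM; growth read once vehicle control cultures reached saturation at 30 °C; 1 = growth at the plate median or of vehicle wells; lower values mean less growth of the strain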
- SETUP CONDITIONS: S. cerevisiae deletion strains, growth OD, locus YHR200W, strain rpn10
The campaign covered roughly 5,500 compounds. About 2,000 (36%) were called active. Another 18% or so got no clear call; they are omitted. Cut-off read from the data, not from the text of the source: active = normalized growth mostly below about 0.91 (no sharp cut-off); inconclusive = no clear call, values can overlap the other calls; inactive = mostly above about 0.92. The list shows a part of the results.
Pick one: active, inactive

Known results for compounds:
COMPOUND | GROUP
O=C(O)c1cc(O)c2c(c1)[C@@H]([C@H]1c3cc(C(=O)O)cc(O)c3C(=O)c3c(O[C@H]4O[C@H](CO)[C@@H](O)[C@H](O)[C@H]4O)cccc31)c1cccc(O[C@H]3O[C@H](CO)[C@@H](O)[C@H](O)[C@H]3O)c1C2=O | inactive
COc1ccccc1OCC(O)CO (configuration not stated) | inactive
CCN(CC)CCOC(=O)C1(C2CCCCC2)CCCCC1 | inactive
CC(C)=CCc1c2c(c3occ(-c4ccc(O)c(O)c4)c(=O)c3c1O)C=CC(C)(C)O2 | active
CCN(CC)CCOC(=O)C(c1ccccc1)C1CCCCC1 (configuration not stated) | inactive
CC12CCC(=O)C=C1CCC1C2[C@@H](O)CC2(C)C1CC[C@]2(O)C(=O)COP(=O)(O)O (some centres not stated) | inactive

Below: the item to evaluate.
input: What did the test return for NC(Cn1ccc(=O)c(O)c1)C(=O)O (configuration not stated) ?
output: inactive

----------
- ASSAY PROCEDURE: chemical genetic growth profiling, strain panel (AID 1159580);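 also: tested at 20 µM; growth read once vehicle control cultures reached saturation at 30 °C; 1 = growth at the plate median or of vehicle wells; lower values mean less growth of the strain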
- SETUP CONDITIONS: S. cerevisiae deletion strains, growth OD, locus YPL055C, strain LGE1, active compounds read low
Out of some 5,500 compounds screened, about 2,000 (36%) were called active. Inconclusive results (about 18%) are left out. The list shows a part of the results.
Recorded normalized growth for the following compounds

Solved cases (2 shown):
COMPOUND | normalized growth
CCN1CCN(C(=O)NC(C(=O)N[C@@H]2C(=O)N3[C@@H]2SC(C)(C)[C@@H]3C(=O)O)c2ccccc2)C(=O)C1=O (stereo partly drawn) | 1.01 (inactive)
CC(=O)Oc1ccc(/C=C/c2cc(OC(C)=O)cc(OC(C)=O)c2)cc1 | 0.947 (inactive)

input: So what does the record say about normalized growth for C[C@H]1c2cccc(O)c2C(O)=C2C(=O)[C@]3(O)C(O)=C(C(N)=O)C(=O)[C@@H](N(C)C)[C@@H]3[C@@H](O)[C@@H]21 ?
output: 0.866 (inactive)

----------
- ASSAY PROCEDURE: chemical genetic growth profiling, strain panel (AID 1159580);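 also: tested at 20 µM; growth read once vehicle control cultures reached saturation at 30 °C; 1 = growth at the plate median or of vehicle wells; lower values mean less growth of the strain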
- SETUP CONDITIONS: S. cerevisiae deletion strains, growth OD, locus YPL256C, strain CLN2, active compounds read low
In all, about 5,500 compounds went through this assay and about 2,000 (36%) were called active. Inconclusive results (about 18%) are left out. This is one part of the list.
ENDPOINT: normalized growth
Response field accepts a number only; no unit should be typed.

Solved cases (3 shown):
COMPOUND | normalized growth
CC(=O)N[C@@H](Cc1c[nH]c2ccccc12)C(N)=O | 0.999
CC(C)(C)NC[C@H](O)c1ccc(O)c(CO)c1 | 0.971
COc1ccccc1OCC(O)CO (stereo not given) | 0.977

input: So what does the record say about normalized growth for Cc1c(C)c2c(c(C)c1O)CCC(C)(CCCC(C)CCCC(C)CCCC(C)C)O2 (stereo not given) ?
output: 1.02

input: So what does the record say about normalized growth for NCCCNCCCCNCCCN ?
output: 1.02
